# tested_on: δ opioid receptors (Mus musculus, UniProt P32300)
# Construct: Bioassays Using Isolated Organ Preparations; from tissue; host or cells: mouse vas deferens (isolated organ)
# Sequence (P32300 whole entry): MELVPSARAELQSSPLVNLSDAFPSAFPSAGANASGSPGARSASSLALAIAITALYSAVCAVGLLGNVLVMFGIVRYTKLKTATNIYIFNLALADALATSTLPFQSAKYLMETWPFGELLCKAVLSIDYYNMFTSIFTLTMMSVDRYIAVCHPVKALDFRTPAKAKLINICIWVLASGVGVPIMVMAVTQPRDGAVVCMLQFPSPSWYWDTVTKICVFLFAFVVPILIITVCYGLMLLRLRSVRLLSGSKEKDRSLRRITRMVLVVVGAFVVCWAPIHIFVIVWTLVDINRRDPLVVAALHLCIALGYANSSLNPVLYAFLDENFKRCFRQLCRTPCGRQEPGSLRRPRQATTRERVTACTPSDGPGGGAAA
# assay_summary: Mouse vas deferens (MVD) bioassay, antagonism of electrically evoked contraction inhibition by δ-selective agonists
# Assay type: tissue-based
# conditions_used: Ke (nM) against [Leu5]Enkephalin, MVD assay; δ agonist [Leu5]enkephalin; means of 3-8 determinations
Peptide text beside a SMILES is read from it.
reported_property: Kb (nM)
Please give a number only; it is taken to be in nM.

Known Kb results, listed for orientation:
Cc1cc(O)cc(C)c1C[C@H](N)C(=O)N1Cc2ccccc2C[C@H]1C(=O)N[C@@H](Cc1ccccc1)C(=O)N[C@@H](Cc1ccccc1)C(N)=O [HDmtTicPhePheNH2, H-Dmt-Tic-Phe-Phe-NH2] (HELM PEPTIDE1{[Cc1cc(O)cc(C)c1C[C@H](N)C(=O)[*:2]].[Tic].F.F.[am]}$$$$V2.0)	0.221
CCCCCCN[C@@H](Cc1ccc(O)cc1)C(=O)N1Cc2ccccc2C[C@H]1C(=O)N[C@@H](Cc1ccccc1)C(=O)N[C@@H](Cc1ccccc1)C(=O)O	9.37
N[C@@H](Cc1ccc(O)cc1)C(=O)N1Cc2ccccc2C[C@H]1C(=O)N[C@@H](Cc1c[nH]c2ccccc12)C(=O)N[C@@H](Cc1ccc([N+](=O)[O-])cc1)C(=O)O [HTyrTicTrpPhe(pNO2)OH, H-Tyr-Tic-Trp-Phe(pNO2)-OH] (HELM PEPTIDE1{Y.[Tic].W.[O=C(O)[C@H](Cc1ccc([N+](=O)[O-])cc1)N[*:1]]}$$$$V2.0)	1.83
N[C@@H](Cc1ccc(O)cc1)C(=O)N1Cc2ccccc2C[C@H]1C(=O)N[C@H](C(=O)N[C@@H](Cc1ccccc1)C(=O)O)c1ccccc1 [HTyrTicPhgPheOH, H-Tyr-Tic-Phg-Phe-OH] (HELM PEPTIDE1{Y.[Tic].[Phg].F}$$$$V2.0)	13.8
NC(=O)[C@H](Cc1ccccc1)NC(=O)[C@H](Cc1c[nH]c2ccccc12)NC(=O)[C@@H]1Cc2ccccc2CN1C(=O)[C@@H](N)Cc1ccc(O)cc1 [HTyrTicTrpPheNH2, H-Tyr-Tic-Trp-Phe-NH2] (HELM PEPTIDE1{Y.[Tic].W.F.[am]}$$$$V2.0)	3.24
NC(=O)[C@H](CO)NC(=O)[C@@H]1CCCN1C(=O)[C@H](Cc1ccc(O)cc1)NC(=O)[C@H](Cc1ccccc1)NC(=O)[C@H](Cc1c[nH]c2ccccc12)NC(=O)[C@@H]1Cc2ccccc2CN1C(=O)[C@@H](N)Cc1ccc(O)cc1 [HTyrTicTrpPheTyrProSerNH2, H-Tyr-Tic-Trp-Phe-Tyr-Pro-Ser-NH2] (HELM PEPTIDE1{Y.[Tic].W.F.Y.P.S.[am]}$$$$V2.0)	4.2

Field: next molecule
Memo: Oc1ccc2c3c1O[C@H]1c4[nH]c5ccccc5c4C[C@@]4(O)[C@@H](C2)N(CC2CC2)CC[C@]314 [Naltrindole, naltrindole, reference compound] , reported Kb: 0.85

----------
Recorded Kb by entry
# tested_on: δ opioid receptors (Mus musculus)
# Construct: Bioassays Using Isolated Organ Preparations; from tissue; host or cells: mouse vas deferens (isolated organ)
# assay_summary: Mouse vas deferens (MVD) bioassay, antagonism of electrically evoked contraction inhibition by δ-selective agonists
# Format: tissue-based
# conditions_used: MVD assay; δ agonist DPDPE; means of 3-8 determinations; read-out: Ke (nM) against DPDPE
# Text: a) Biosassys based on inhibition of electrically evoked contractions of the mouse vas deferens (MVD) and of the guinea pig ileum (GPI). In the GPI assay the opioid effect is primarily mediated by μ opioid receptors, whereas in the MVD assay the inhibition of the contractions is mostly due to interaction with δ opioid receptors. The GPI and MVD bioassays were carded out as reported in P. W. Schiller et al., Biochem. Biophys. […]
Peptide text beside a SMILES is read from it.
Please give a number only; it is taken to be in nM.

Known Kb results, listed for orientation:
N[C@@H](Cc1ccc(O)cc1)C(=O)N1Cc2ccccc2C[C@H]1CN[C@@H](Cc1ccccc1)C(=O)O [HTyrTic-.psi.[CH2NH]PheOH, H-Tyr-Tic.PSI.[CH2 -NH]Phe-OH]	9.06
Cc1cc(O)cc(C)c1C[C@H](N)C(=O)N1Cc2ccccc2C[C@H]1C(=O)N[C@@H](Cc1ccccc1)C(=O)N[C@@H](Cc1ccccc1)C(=O)O [HDmtTicPhePheOH, H-Dmt-Tic-Phe-Phe-OH] (HELM PEPTIDE1{[Cc1cc(O)cc(C)c1C[C@H](N)C(=O)[*:2]].[Tic].F.F}$$$$V2.0)	0.196
NC(=O)[C@H](Cc1ccccc1)NC(=O)[C@H](Cc1ccccc1)NC(=O)[C@@H]1Cc2ccccc2CN1C(=O)[C@@H](N)Cc1ccc(O)cc1 [HTyrTicPhePheNH2, H-Tyr-Tic-Phe-Phe-NH2] (HELM PEPTIDE1{Y.[Tic].F.F.[am]}$$$$V2.0)	18
N[C@@H](Cc1ccc(O)cc1)C(=O)N1Cc2ccccc2C[C@H]1C(=O)N[C@@H](Cc1ccccc1)C(=O)N[C@@H](Cc1ccccc1)C(=O)O [HTyrTicPhePheOH, H-Tyr-Tic-Phe-Phe-OH] (HELM PEPTIDE1{Y.[Tic].F.F}$$$$V2.0)	4.8
CN(C[C@@H]1Cc2ccccc2CN1C(=O)[C@@H](N)Cc1ccc(O)cc1)[C@@H](Cc1ccccc1)C(=O)N[C@@H](Cc1ccccc1)C(=O)O [HTyrTic.psi.[CH2NCH3]PhePheOH, H-Tyr-Tic.PSI.[CH2 --NCH3 ]Phe-Phe-OH]	4.76
Cc1cc(O)cc(C)c1C[C@H](N)C(=O)N1Cc2ccccc2C[C@H]1C(=O)N[C@@H](Cc1ccccc1)C(=O)N[C@@H](Cc1ccccc1)C(N)=O [HDmtTicPhePheNH2, H-Dmt-Tic-Phe-Phe-NH2] (HELM PEPTIDE1{[Cc1cc(O)cc(C)c1C[C@H](N)C(=O)[*:2]].[Tic].F.F.[am]}$$$$V2.0)	0.209

Field: next molecule
Memo: Oc1ccc2c3c1O[C@H]1c4[nH]c5ccccc5c4C[C@@]4(O)[C@@H](C2)N(CC2CC2)CC[C@]314 [Naltrindole, naltrindole, reference compound] , reported Kb: 0.632

----------
# tested_on: δ opioid receptors (Mus musculus)
# Construct: Bioassays Using Isolated Organ Preparations; from tissue; host or cells: mouse vas deferens (isolated organ)
# assay_summary: Mouse vas deferens (MVD) bioassay, antagonism of electrically evoked contraction inhibition by δ-selective agonists
# Type: tissue-based
# conditions_used: Ke (nM) against DPDPE, MVD assay; δ agonist DPDPE; means of 3-8 determinations
Peptide text beside a SMILES is read from it.
reported_property: Kb (nM)
Please give a number only; it is taken to be in nM.

NC(=O)[C@H](Cc1ccccc1)NC(=O)[C@H](Cc1c[nH]c2ccccc12)NC(=O)[C@@H]1Cc2ccccc2CN1C(=O)[C@@H](N)Cc1ccc(O)cc1 [HTyrTicTrpPheNH2, H-Tyr-Tic-Trp-Phe-NH2] (HELM PEPTIDE1{Y.[Tic].W.F.[am]}$$$$V2.0)	4.65
N[C@@H](Cc1ccc(O)c(Cl)c1)C(=O)N1Cc2ccccc2C[C@H]1C(=O)N[C@@H](Cc1ccccc1)C(=O)N[C@@H](Cc1ccccc1)C(=O)O [HTyr(3-Cl)TicPhePheOH, H-Tyr(3-Cl)-Tic-Phe-Phe-OH] (HELM PEPTIDE1{[N[C@@H](Cc1ccc(O)c(Cl)c1)C(=O)[*:2]].[Tic].F.F}$$$$V2.0)	20.4

Memo: CCCC[C@H](NC(=O)[C@H](CC(C)C)NC(=O)[C@H](Cc1ccccc1)NC(=O)[C@H](Cc1ccccc1)NC(=O)[C@@H]1Cc2ccccc2CN1C(=O)[C@@H](N)Cc1ccc(O)cc1)C(=O)N[C@@H](CC(=O)O)C(N)=O [HTyrTicPhePheLeuNleAspNH2, H-Tyr-Tic-Phe-Phe-Leu-Nle-Asp-NH2] (HELM PEPTIDE1{Y.[Tic].F.F.L.[Nle].D.[am]}$$$$V2.0) , reported Kb: 10.4

----------
# tested_on: δ opioid receptors (Mus musculus, UniProt P32300)
# Construct: Bioassays Using Isolated Organ Preparations; from tissue; host or cells: mouse vas deferens (isolated organ)
# assay_summary: Mouse vas deferens (MVD) bioassay, antagonism of electrically evoked contraction inhibition by δ-selective agonists
# Type: tissue-based
# conditions_used: MVD assay; δ agonist [Leu5]enkephalin; means of 3-8 determinations; read-out: Ke (nM) against [Leu5]Enkephalin
Peptide text beside a SMILES is read from it.
reported_property: Kb (nM)
Please give a number only; it is taken to be in nM.

N[C@@H](Cc1ccc(O)cc1)C(=O)N1Cc2ccccc2C[C@H]1CN[C@@H](Cc1ccccc1)C(=O)O [HTyrTic-.psi.[CH2NH]PheOH, H-Tyr-Tic.PSI.[CH2 -NH]Phe-OH]	9.12
N[C@@H](Cc1ccc(O)cc1)C(=O)N1Cc2ccccc2C[C@H]1C(=O)N[C@@H](Cc1ccccc1)C(=O)N[C@@H](Cc1ccccc1)C(=O)O [HTyrTicPhePheOH, H-Tyr-Tic-Phe-Phe-OH] (HELM PEPTIDE1{Y.[Tic].F.F}$$$$V2.0)	5.86
CN(C[C@@H]1Cc2ccccc2CN1C(=O)[C@@H](N)Cc1ccc(O)cc1)[C@@H](Cc1ccccc1)C(=O)N[C@@H](Cc1ccccc1)C(=O)O [HTyrTic.psi.[CH2NCH3]PhePheOH, H-Tyr-Tic.PSI.[CH2 --NCH3 ]Phe-Phe-OH]	6.28

Field: next compound
Value (Kb, δ opioid receptors (Mus musculus, UniProt P32300)) for record Cc1cc(O)cc(C)c1C[C@H](N)C(=O)N1Cc2ccccc2C[C@H]1C(=O)N[C@@H](Cc1ccccc1)C(=O)N[C@@H](Cc1ccccc1)C(=O)O [HDmtTicPhePheOH, H-Dmt-Tic-Phe-Phe-OH] (HELM PEPTIDE1{[Cc1cc(O)cc(C)c1C[C@H](N)C(=O)[*:2]].[Tic].F.F}$$$$V2.0) = 0.169

Origin of measurements: patent US5602099A
